Recorded values, source the nanobody polyreactivity screen of Harvey et al. (2022).

- ASSAY_OVERVIEW: yeast display, Sf9 membrane polyspecificity reagent, FACS + sequencing; frameworks hold sequencing errors
ENDPOINT: polyreactivity (PSR sort gate)

QVQLVESGGGLVQAGGSLRLSCAASGRIFGVYAMGWYRQAPGKERELVAAISEGGGSTNYADSVKGRFSISRDNAKNTVYLQMNSLKPEDTAVYYCAATYRTGVRRYYSWGQGTQVTVSS low polyreactivity
QVQLVESGGGLVQAGGSLRLSCAASGRTFRAYAMGWYRQAPGKERELVARISWSGGNTYYADSVKGRFTISRDNAKNTVYLQMNSLKPEDTAVYYCAKTYYPYPAQIYTGYSWGQGTQVTVSS low polyreactivity
